Reference source: patent US20060257543A1

Parameter EC50: see the listing below.
# target-under-test: hT1R2/hT1R3 sweet receptor expressed in an HEK293 cell line (Homo sapiens, UniProt Q7RTX0+Q8TE23)
# Construct: expressed in transfected cells; host or cells: HEK293 derivative, clone S-9
# assay-info: In vitro hT1R2/hT1R3 sweet taste receptor activation assay (FLIPR, dose response)
# Assay type: cell-based
# measurement-parameters: read-out: Sweet EC50
Respond with the bare value in nM.

Here's what some known entries look like.
{"smiles-representation": "Cc1cc(CNC(=S)Nc2ccc(OC(C)C)cc2)no1", "measurement-kind": "EC50", "measurement": 1890}
{"smiles-representation": "CSc1ccc(NC(=S)NCc2ccc[nH]2)cc1", "measurement-kind": "EC50", "measurement": 430}
{"smiles-representation": "CCN(CC)c1ccc(NC(=S)NCc2ccoc2)cc1", "measurement-kind": "EC50", "measurement": 4090}
{"smiles-representation": "CCOc1ccc(NC(=S)NCc2sccc2C)cc1", "measurement-kind": "EC50", "measurement": 4160}
{"smiles-representation": "CCc1ccc(NC(=S)NCc2ccoc2)cc1", "measurement-kind": "EC50", "measurement": 1880}

Attention now turns to another entry.
### Prompt EC50 for CC(C)(C)c1ccc(NC(=S)NCc2ccc[nH]2)cc1 ?
### Response 1710

====

# target-under-test: hT1R2/hT1R3 sweet receptor expressed in an HEK293 cell line (Homo sapiens, UniProt Q7RTX0+Q8TE23)
# Construct: expressed in transfected cells; host or cells: HEK293 derivative, clone S-9
# Sequence (Q8TE23 20-839): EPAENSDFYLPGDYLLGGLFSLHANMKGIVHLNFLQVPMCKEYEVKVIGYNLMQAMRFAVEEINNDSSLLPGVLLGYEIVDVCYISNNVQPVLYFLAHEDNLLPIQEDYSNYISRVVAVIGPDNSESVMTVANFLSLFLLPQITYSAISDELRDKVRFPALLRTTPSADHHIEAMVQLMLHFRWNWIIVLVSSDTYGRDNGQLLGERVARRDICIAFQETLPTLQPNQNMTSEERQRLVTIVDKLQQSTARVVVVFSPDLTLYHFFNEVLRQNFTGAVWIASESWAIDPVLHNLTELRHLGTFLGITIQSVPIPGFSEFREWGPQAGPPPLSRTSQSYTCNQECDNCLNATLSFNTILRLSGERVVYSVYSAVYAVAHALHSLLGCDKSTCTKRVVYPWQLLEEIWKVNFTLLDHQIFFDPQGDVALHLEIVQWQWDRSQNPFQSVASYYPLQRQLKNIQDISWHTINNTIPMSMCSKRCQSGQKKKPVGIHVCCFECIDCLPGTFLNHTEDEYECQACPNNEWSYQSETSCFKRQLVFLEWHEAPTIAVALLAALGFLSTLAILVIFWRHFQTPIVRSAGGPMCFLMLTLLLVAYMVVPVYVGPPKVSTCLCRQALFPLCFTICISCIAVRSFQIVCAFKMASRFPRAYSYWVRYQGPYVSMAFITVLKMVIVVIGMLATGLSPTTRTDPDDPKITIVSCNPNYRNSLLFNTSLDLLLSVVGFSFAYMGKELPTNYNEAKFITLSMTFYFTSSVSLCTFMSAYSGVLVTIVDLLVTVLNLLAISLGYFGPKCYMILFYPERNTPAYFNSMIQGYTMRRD
# Sequence (Q7RTX0 21-852): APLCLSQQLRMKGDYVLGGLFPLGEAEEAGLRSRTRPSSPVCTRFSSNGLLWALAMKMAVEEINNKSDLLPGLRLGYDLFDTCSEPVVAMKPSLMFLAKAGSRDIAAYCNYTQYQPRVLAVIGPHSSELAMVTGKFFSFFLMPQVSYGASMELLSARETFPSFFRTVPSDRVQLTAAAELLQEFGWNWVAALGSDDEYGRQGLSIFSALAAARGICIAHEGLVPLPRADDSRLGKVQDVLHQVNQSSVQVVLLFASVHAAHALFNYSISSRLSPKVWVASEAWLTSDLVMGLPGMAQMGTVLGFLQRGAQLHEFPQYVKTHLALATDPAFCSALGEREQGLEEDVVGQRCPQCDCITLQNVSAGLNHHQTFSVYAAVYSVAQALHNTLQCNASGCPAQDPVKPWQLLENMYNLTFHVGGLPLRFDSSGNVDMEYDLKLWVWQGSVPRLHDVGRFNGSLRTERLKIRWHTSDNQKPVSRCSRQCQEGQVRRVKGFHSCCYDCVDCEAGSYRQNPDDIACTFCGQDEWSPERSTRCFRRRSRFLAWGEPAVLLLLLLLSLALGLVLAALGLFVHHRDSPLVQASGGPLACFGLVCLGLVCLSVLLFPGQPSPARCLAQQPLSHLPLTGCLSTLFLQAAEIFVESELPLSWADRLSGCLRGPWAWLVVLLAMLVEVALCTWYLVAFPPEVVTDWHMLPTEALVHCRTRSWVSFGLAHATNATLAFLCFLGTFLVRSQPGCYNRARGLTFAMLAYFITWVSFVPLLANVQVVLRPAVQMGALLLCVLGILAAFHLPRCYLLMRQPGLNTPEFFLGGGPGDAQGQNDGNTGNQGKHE
# assay-info: In vitro hT1R2/hT1R3 sweet taste receptor activation assay (FLIPR, dose response)
# Type: cell-based
# measurement-parameters: read-out: EC50 for activation of a hT1R2/hT1R3 sweet receptor
measurement-kind: pEC50
Would you please state pEC50, meaning minus log10 of the concentration in mol/L, as a bare number?

Here's what some known entries look like.
{"molecule": "CCOc1ccc(NC(=S)NCc2ccoc2)cc1", "measurement-kind": "pEC50", "measurement": 6.64}
{"molecule": "COc1ccc(CNc2c(F)cc(F)cc2F)cc1O", "measurement-kind": "pEC50", "measurement": 5.63}
{"molecule": "CCC(C)Oc1ccc(NC(=S)NCc2ccco2)cc1 (stereo not shown)", "measurement-kind": "pEC50", "measurement": 5.28}

Attention now turns to another entry.
### Prompt pEC50 for COc1ccc(CNc2ccc(F)cc2F)cc1O ?
### Response 5.68
